Record form. Attribute: CC50 at 120 h. Fill in for each entry.
- method.notes: Cytotoxicity against human foreskin fibroblasts after 5 days by colorimetric assay
- Assay type: cell-based
- particulars: human foreskin fibroblasts (HFF cells), read-out: TD50

What does the data say about its CC50 at 120 h? Entry: C/C(=N/N=C1/SCC(=O)N1Cc1ccccc1)c1cccnc1
147 µM

Similarly, C/C(=N/N=C1/SCC(=O)N1Cc1ccccc1)c1ccco1 ?
≥ 320 µM

Similarly, CCCCC/C(C)=N\N=C1\SCC(=O)N1Cc1ccccc1 ?
88 µM

Similarly, C/C(CC(C)C)=N/N=C1/SCC(=O)N1Cc1ccccc1 ?
220 µM

Similarly, CCCC/C(CC)=N\N=C1/NC(=O)CS1 ?
≥ 320 µM

Similarly, C/C(=N/N=C1\NC(=O)CS1)C1CCCCC1 ?
≥ 320 µM

Similarly, O=C1CSC(NN=C2CCCCC2)=N1 ?
≥ 320 µM

Similarly, CCC(CC)=N/N=C1/SCC(=O)N1Cc1ccccc1 ?
≥ 320 µM

Similarly, CC/C(C)=N\N=C1/NC(=O)CS1 ?
≥ 320 µM

Similarly, CC1CCC/C(=N/N=C2\NC(=O)CS2)C1 (stereo not drawn) ?
202 µM

Similarly, C=CCC/C(C)=N\N=C1/NC(=O)CS1 ?
≥ 320 µM

Similarly, CCC(CC)=N/N=C1\NC(=O)CS1 ?
≥ 320 µM

Similarly, C/C(=N\N=C1/NC(=O)CS1)c1ccncc1 ?
≥ 320 µM

Similarly, O=C1CSC(NN=C2CCCCCC2)=N1 ?
≥ 320 µM

Similarly, CC1CCCC/C1=N/N=C1/SCC(=O)N1Cc1ccccc1 (stereo not drawn) ?
≥ 320 µM

Similarly, O=C1CS/C(=N/N=C\c2cccs2)N1 ?
≥ 320 µM

Similarly, CC(C)(C)C1CCCC/C1=N/N=C1\NC(=O)CS1 (stereo not drawn) ?
≥ 320 µM

Similarly, CC/C(C)=N\N=C1\SCC(=O)N1Cc1ccccc1 ?
≥ 320 µM

Similarly, CC1CCC/C1=N/N=C1\NC(=O)CS1 (stereo not drawn) ?
35 µM

Similarly, C/C(=N/N=C1\NC(=O)CS1)c1ccccn1 ?
16 µM

Similarly, CC(C)=C/C(C)=N\N=C1/NC(=O)CS1 ?
≥ 320 µM

Similarly, O=C1CS/C(=N/N=C\c2cccc3ccccc23)N1Cc1ccccc1 ?
≥ 320 µM

Similarly, O=C1CS/C(=N/N=C\c2ccc3c(c2)OCO3)N1Cc1ccccc1 ?
≥ 320 µM

* * *

Record form. Attribute: selectivity ratio. Fill in for each entry.
- method.notes: Therapeutic index, ratio of TD50 for human foreskin fibroblasts to IC50 for Toxoplasma gondii infected in human foreskin fibroblasts
- particulars: read-out: TI

What does the data say about its selectivity ratio? Entry: CC/C(C)=N\N=C1/NC(=O)CS1
4

Similarly, CC(C)(C)C1CCCC/C1=N/N=C1/SCC(=O)N1Cc1ccccc1 (stereo unspecified) ?
6

Similarly, O=C1CS/C(=N/N=C\c2cccnc2)N1Cc1ccccc1 ?
2

Similarly, CCC/C(C)=N\N=C1/NC(=O)CS1 ?
2

Similarly, O=C1CS/C(=N/N=C\c2cccs2)N1 ?
4

Similarly, CC1CCC/C(=N/N=C2/SCC(=O)N2Cc2ccccc2)C1 (stereo unspecified) ?
2
